Molecular target: full length AKT E17K (Homo sapiens, UniProt P31749, E17K)
Construct: host or cells: HEK-293 (ATCC CRL-1573)
Sequence (P31749 whole entry E17K): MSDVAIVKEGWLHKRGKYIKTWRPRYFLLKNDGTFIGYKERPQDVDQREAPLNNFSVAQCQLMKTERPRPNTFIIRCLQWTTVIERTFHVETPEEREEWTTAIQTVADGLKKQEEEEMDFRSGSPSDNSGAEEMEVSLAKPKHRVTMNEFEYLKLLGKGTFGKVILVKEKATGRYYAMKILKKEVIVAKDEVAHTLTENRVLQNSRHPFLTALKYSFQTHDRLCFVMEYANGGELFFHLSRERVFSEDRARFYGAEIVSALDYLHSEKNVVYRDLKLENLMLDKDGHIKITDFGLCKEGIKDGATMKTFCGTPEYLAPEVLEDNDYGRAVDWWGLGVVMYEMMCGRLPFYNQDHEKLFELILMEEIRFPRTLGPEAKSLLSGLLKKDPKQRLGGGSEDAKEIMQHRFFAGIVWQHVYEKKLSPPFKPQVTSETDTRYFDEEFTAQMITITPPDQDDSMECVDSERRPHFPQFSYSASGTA
Test: NanoBRET Target Engagement (TE) Assay
Assay type: cell-based
Conditions: competitive displacement of tracer in cells, read-out: AKT1 E17K IC50
pIC50: −log10 of the molar value.
MEASURED_ENDPOINT: pIC50

// query Give pIC50 (full length AKT E17K (Homo sapiens, UniProt P31749, E17K)) of the following molecule: `N#Cc1nccc(NC2CCN(Cc3ccc(-n4c(-c5cccnc5N)nc5ccc(-c6ccc(F)cc6Cl)nc54)cc3)CC2)n1`
// result 7.22 to 7.82

// query Fill in the recorded pIC50 for this molecule, with full length AKT E17K (Homo sapiens, UniProt P31749, E17K) as test system: `N#Cc1ccc2nc(-c3cccnc3N)n(-c3ccc(CN4CCC(Nc5ccnc(C#N)n5)CC4)cc3)c2n1`
// result > 7.82

// query Observed pIC50 on full length AKT E17K (Homo sapiens, UniProt P31749, E17K) for `Cc1cc(C)c2nc(-c3cccnc3N)n(-c3ccc(CN4CCC(Nc5ccnc(C#N)n5)CC4)cc3)c2n1` , please.
// result > 7.82

// query Give pIC50 (full length AKT E17K (Homo sapiens, UniProt P31749, E17K)) of the following molecule: `N#Cc1cc(N2CCN(Cc3ccc(-n4c(-c5cccnc5N)nc5ccc(-c6ccccc6Cl)nc54)cc3)CC2)ncn1`
// result 7.22 to 7.82

// query Short answer please: pIC50, full length AKT E17K (Homo sapiens, UniProt P31749, E17K), entry `N#Cc1nccc(NC2CCN(Cc3ccc(-n4c(-c5cccnc5N)nc5cc(C#N)c(O)nc54)cc3)CC2)n1`
// result 5.00 to 6.22

// query Notebook: pull reported pIC50 for full length AKT E17K (Homo sapiens, UniProt P31749, E17K), entry `Cn1cc(-c2ccc3nc(-c4cccnc4N)n(-c4ccc(CN5CCC(Nc6ccnc(C#N)n6)CC5)cc4)c3n2)ccc1=O`
// result 7.22 to 7.82

// query I'm curious: which pIC50 was measured for `N#Cc1nccc(NC2CCN(Cc3ccc(-n4c(-c5cccnc5N)nc5ccc(-c6ccc(F)nc6)nc54)cc3)CC2)n1` tested on full length AKT E17K (Homo sapiens, UniProt P31749, E17K)?
// result > 7.82

// query full length AKT E17K (Homo sapiens, UniProt P31749, E17K) / pIC50 / `Cn1c(-c2ccc3nc(-c4cccnc4N)n(-c4ccc(CN5CCC(Nc6ccnc(C#N)n6)CC5)cc4)c3n2)cccc1=O` : value?
// result 5.00 to 6.22

// query Give full length AKT E17K (Homo sapiens, UniProt P31749, E17K) pIC50 for `N#Cc1ncnc(N2CCN(Cc3ccc(-n4c(-c5cccnc5N)nc5ccc(-c6ccccc6)nc54)cc3)CC2)n1`
// result > 7.82

// query Query pIC50 on full length AKT E17K (Homo sapiens, UniProt P31749, E17K) for `N#Cc1cc(N2CCN(Cc3ccc(-n4c(-c5cccnc5N)nc5ccc(-c6cccc(=O)[nH]6)nc54)cc3)CC2)ncn1`
// result 7.22 to 7.82

// query Can you look up pIC50 on full length AKT E17K (Homo sapiens, UniProt P31749, E17K) for `N#Cc1ncnc(NC2CC3(CCN(Cc4ccc(-n5c(-c6cccnc6N)nc6ccc(N7CCOCC7)nc65)cc4)CC3)C2)n1` ?
// result 7.22 to 7.82

// query Form field - read-out: pIC50; system: full length AKT E17K (Homo sapiens, UniProt P31749, E17K); submitted item: `N#Cc1nccc(NC2CCN(Cc3ccc(-n4c(-c5cccnc5N)nc5ccc(-c6cn[nH]n6)nc54)cc3)CC2)n1`
// result > 7.82

// query Query the reported pIC50 for full length AKT E17K (Homo sapiens, UniProt P31749, E17K); item: `N#Cc1nccc(NC2CCN(Cc3ccc(-n4c(-c5cccnc5N)nc5ccc(-n6ccnn6)nc54)cc3)CC2)n1`
// result > 7.82

// query For full length AKT E17K (Homo sapiens, UniProt P31749, E17K), provide pIC50 of `N#Cc1nccc(NC2CCN(Cc3ccc(-n4c(-c5cccnc5N)nc5ccc(-c6ncn(C(F)F)n6)nc54)cc3)CC2)n1` please.
// result > 7.82

Data origin: patent US12209087B2
